# Test system: wild-type ydaO riboswitch
# assay_name: gel-shift
# Assay type: binding, Bacillus subtilis
# condition_info: loss in affinity for wild-type ydaO relative to c-di-AMP
attribute_measured: Fold Loss

Please review the following examples before continuing.
- Nc1ncnc2c1ncn2[C@@H]1O[C@@H]2COP(=O)(O)O[C@H]3[C@@H](F)[C@H](n4cnc5c(N)ncnc54)O[C@@H]3COP(=O)(O)O[C@H]2[C@H]1F: 5100
- Nc1ncnc2c1ncn2[C@@H]1O[C@@H]2CO[P@@](=O)(S)O[C@H]3[C@@H](O)[C@H](n4cnc5c(N)ncnc54)O[C@@H]3CO[P@@](=O)(S)O[C@H]2[C@H]1O [c-(RpRp)-di-Aps]: 1.8
- Nc1ncnc2c1ncn2[C@H]1C[C@@H]2OP(=O)(O)OC[C@H]3O[C@@H](n4cnc5c(N)ncnc54)C[C@@H]3OP(=O)(O)OC[C@H]2O1: 290
- Nc1ncnc2c1ncn2[C@@H]1O[C@@H]2CO[P@@](=O)(S)O[C@H]3[C@@H](O)[C@H](n4cnc5c(N)ncnc54)O[C@@H]3CO[P@](=O)(S)O[C@H]2[C@H]1O [c-(RpSp)-di-Aps]: 2.9

Looking up `CO[C@@H]1[C@@H]2OP(=O)(O)OC[C@H]3O[C@@H](n4cnc5c(N)ncnc54)[C@H](OC)[C@@H]3OP(=O)(O)OC[C@H]2O[C@H]1n1cnc2c(N)ncnc21` , I see its Fold Loss listed as > 2.9 × 10^6

Fold Loss for `Nc1ncnc2c1ncn2[C@@H]1O[C@@H]2COP(=O)(O)O[C@H]3C[C@H](n4cnc5c(N)ncnc54)O[C@@H]3COP(=O)(O)O[C@H]2[C@H]1F` is 530

Fold Loss reading for `O=c1[nH]cnc2c1ncn2[C@@H]1O[C@@H]2COP(=O)(O)O[C@H]3[C@@H](O)[C@H](n4cnc5c(=O)[nH]cnc54)O[C@@H]3COP(=O)(O)O[C@H]2[C@H]1O` : 3600
